Target: TmCHMO (Thermocrispum municipale, UniProt A0A1L1QK40)
Construct: recombinant from E. coli, gene from pBAD-His-Tag-SUMO-TmCHMO
Sequence (A0A1L1QK40 1-541): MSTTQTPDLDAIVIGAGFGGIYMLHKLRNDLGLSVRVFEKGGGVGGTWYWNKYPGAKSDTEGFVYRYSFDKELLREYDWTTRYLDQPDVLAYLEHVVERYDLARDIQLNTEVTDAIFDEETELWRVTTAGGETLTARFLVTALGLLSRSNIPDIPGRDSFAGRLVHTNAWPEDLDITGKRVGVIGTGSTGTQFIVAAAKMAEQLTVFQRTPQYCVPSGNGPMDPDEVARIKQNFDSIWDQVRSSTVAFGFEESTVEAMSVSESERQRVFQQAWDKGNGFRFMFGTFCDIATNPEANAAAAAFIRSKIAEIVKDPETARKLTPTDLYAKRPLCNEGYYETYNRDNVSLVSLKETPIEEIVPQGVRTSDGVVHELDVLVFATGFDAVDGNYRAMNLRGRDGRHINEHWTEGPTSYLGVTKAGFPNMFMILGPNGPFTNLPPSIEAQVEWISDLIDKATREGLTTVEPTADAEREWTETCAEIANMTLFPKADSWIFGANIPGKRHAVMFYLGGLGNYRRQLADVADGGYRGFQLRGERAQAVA
Test: inhibition of thioanisole oxidation, NADPH depletion at […] nm
Conditions: read-out: K I (estimated)
pKi: −log10 of the molar value.
Observation type: pKi

Query string: I am curious: what pKi value has been reported for "OC1CCCCC1" ?
Result string: > 2.70

====

Molecular target: TmCHMO (Thermocrispum municipale, UniProt A0A1L1QK40)
Construct: recombinant from E. coli, gene from pBAD-His-Tag-SUMO-TmCHMO
Test: inhibition of thioanisole oxidation, NADPH depletion at […] nm
Format: biochemical
Conditions: read-out: 50% reduction of activity
Observation type: IC50 (mM)
Answers are plain numbers, in mM.

Query string: I am curious: what IC50 value has been reported for "O=C1CCCCCO1" ?
Result string: 66
